Entries and their measured polymerase ribozyme fitness (log ratio) follow.
B1: TPR 5TU (parent)
chain: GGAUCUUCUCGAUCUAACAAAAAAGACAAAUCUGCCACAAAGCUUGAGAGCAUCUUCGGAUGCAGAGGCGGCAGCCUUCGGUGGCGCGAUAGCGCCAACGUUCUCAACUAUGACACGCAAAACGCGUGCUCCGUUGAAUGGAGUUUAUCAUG

Variants of: B1
PROTOCOL_NOTES: polymerase ribozyme fitness, log enrichment relative to wild type (log ratio); higher = more active; in vitro selection for triplet polymerase activity
Fewer inactive variants are shown than the library holds.
Output spec: single numeric token, no unit.

Examples from the recorded data:
> print(dat)
          variant.description                               observable  value.reported
1  A20G A29U C51A A106C A113U  polymerase ribozyme fitness (log ratio)            -4.2
2            C93U A115U A120G  polymerase ribozyme fitness (log ratio)            -2.4
3                   C93U A97C  polymerase ribozyme fitness (log ratio)          -0.557
4             U56A G71U C125G  polymerase ribozyme fitness (log ratio)           -3.78
5       G58C G83C G117C C131U  polymerase ribozyme fitness (log ratio)          -0.976
6                  G86A G141U  polymerase ribozyme fitness (log ratio)           -1.07

// next entry
Q. Would you mind telling me what polymerase ribozyme fitness (log ratio) value was observed for C27U C85U ?
A. -2.83
